Source of measurements: patent US20260083865A1

# tgt: Fc-fusion protein of human PSMA (hPSMA-Fc) (Homo sapiens, UniProt Q04609)
# Construct: purchased Acro Biosystems PSA-H5264
# Sequence (Q04609 44-750 limits assumed): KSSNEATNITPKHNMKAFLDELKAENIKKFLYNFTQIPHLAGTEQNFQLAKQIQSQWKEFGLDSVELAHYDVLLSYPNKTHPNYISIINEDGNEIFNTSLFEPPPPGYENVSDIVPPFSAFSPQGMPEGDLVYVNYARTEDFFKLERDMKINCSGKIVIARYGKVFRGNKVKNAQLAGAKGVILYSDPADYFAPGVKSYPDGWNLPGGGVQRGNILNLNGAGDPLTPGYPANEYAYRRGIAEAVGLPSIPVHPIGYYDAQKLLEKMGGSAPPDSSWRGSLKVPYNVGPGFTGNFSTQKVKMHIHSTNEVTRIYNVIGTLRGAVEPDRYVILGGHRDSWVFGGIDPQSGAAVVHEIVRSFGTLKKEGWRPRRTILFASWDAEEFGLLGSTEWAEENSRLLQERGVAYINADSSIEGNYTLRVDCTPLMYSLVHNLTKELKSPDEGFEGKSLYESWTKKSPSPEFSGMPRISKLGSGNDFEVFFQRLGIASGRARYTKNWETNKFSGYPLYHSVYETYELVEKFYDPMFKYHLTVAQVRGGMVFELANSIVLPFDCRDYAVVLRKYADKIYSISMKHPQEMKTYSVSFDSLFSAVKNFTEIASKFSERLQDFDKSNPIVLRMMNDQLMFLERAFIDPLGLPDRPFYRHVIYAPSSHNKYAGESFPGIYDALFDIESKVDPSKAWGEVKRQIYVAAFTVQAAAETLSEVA
# protocolText: Surface plasmon resonance assay (Biacore T200, single cycle kinetic)
# Type: binding
# testSettings: pKD category for PSMA SPR activity assay, hPSMA-Fc, 25° C.; read-out: pKD CAT (converted)
Bridge positions count the residues as written; N and C are the ends. Square brackets hold non-standard residues; d marks the D form. Peptide text beside a SMILES is read from it. * marks the point of attachment. TtdsdLys(DOTA)NH2 = NC(=O)[C@@H](CCCCNC(=O)CN1CCN(CC(=O)O)CCN(CC(=O)O)CCN(CC(=O)O)CC1)NC(=O)CCC(=O)NCCCOCCOCCOCCCN*; Nle = CCCC[C@H](N)C(=O)O
reportedProperty: Kd

Lookup: // Input: CCCC[C@H](NC(=O)[C@@H]1CSSC[C@H](NC(=O)[C@H](Cc2ccccc2)NC(=O)[C@H](C)NC(=O)[C@@H](NC(C)=O)[C@@H](C)O)C(=O)N[C@@H](CCCCN)C(=O)N[C@@H](CCCNC(=N)N)C(=O)N[C@@H](C)C(=O)N[C@@H](CC(N)=O)C(=O)N1)C(=O)N[C@H](C(=O)N[C@@H](CC(=O)O)C(=O)NCCCOCCOCCOCCCNC(=O)CCC(=O)N[C@H](CCCCNC(=O)CN1CCN(CC(=O)O)CCN(CC(=O)O)CCN(CC(=O)O)CC1)C(N)=O)[C@@H](C)O [PSM-0533] (Ac-TAFCKRANC[Nle]TD-{TtdsdLys(DOTA)NH2}; disulfide 4-9) . Output its Kd only.
Found: 0.0126 to 0.126 µM
